# ASSAY REMARKS: Toxicity / deaths of mice in Example 1
# Assay type: in vivo, male BDF1 mice
# STUDY CONDITIONS: mouse, in vivo, po; FU used alone; from the Table (doses in mg/kg); read-out: LD50 (50% lethal dose)
REPORTED PROPERTY: LD50 (mg/kg)
I only need the number, in mg/kg, no unit after it.

Req: Value lookup for LD50; key = O=c1[nH]cc(F)c(=O)[nH]1 [FU, 5-fluorouracil]
Resp: 30
